- Tested on: K4 kissing-loop RNA reporter
- EXPERIMENTAL DETAILS: apparent KD of K4 kissing-loop reporter; higher = weaker reporter binding
- MEASUREMENT CONDITIONS: Eterna round: R107; input ligand: FMN 200 uM
MEASURE: apparent KD of K4 kissing-loop reporter (nM)
Lab book: enter the figure in nM, no units written.

{"ENTRY SEQUENCE": "UGUCAUUGGUCGGCCGCCACUUCAUAAAAGAGUGAUGUUCUAAAGACGGAUCGAAAGAUCUGUCGAAGGACCGGGACCGAUGACU [TrypBS 19 #SwitchBubble #StaticStem]", "MEASURE": "apparent KD of K4 kissing-loop reporter", "UNIT TEXT": "nM", "ENDPOINT VALUE": 508}

Task item: Please indicate apparent KD of K4 kissing-loop reporter recorded for AAAUUUAUAUUAGAUACCAGUUUAAUGGAUGUAAAUUAUGACAUGAGUGAUGUUCAUGUAAGCCCUUGGCAGCUGGUAUGGGUUU [KL-XTheo-B21]
Reply: 127

Task item: Please indicate apparent KD of K4 kissing-loop reporter recorded for AACUGUCAAGGACAACAUUACUGAGGUGAUACCAGGUUUGAGAGGAUCCCUUGGCAGCACCAACUUGCAGUGAUGUUGCAAGUAA [BrourdMod 15 - Jieux - Exclusion - Theophylline A]
Reply: 243

Task item: Please indicate apparent KD of K4 kissing-loop reporter recorded for UGAUACCAGACUGAUACCAGCUAGUGAUGUUAGCUGAAAUCAGGGUCAAAGACCCUGUCUAGCCCUUGGCAGCAGUCUGGUAUCU [TheoBX 9 #SwitchBubble #StaticStem]
Reply: 107

Task item: Please indicate apparent KD of K4 kissing-loop reporter recorded for UGACUACAUAAGGAUUAAUCCUAGUGAUGUUAGGAUAUGCUGAUAAGCAGAAGGAACGGAGAUCGAAGGAUCUCAUAUGUAGUCU [whbob_Ex_FMNA__2th195]
Reply: 457

---

- Tested on: MS2 coat protein
- EXPERIMENTAL DETAILS: apparent KD of MS2 coat protein; designed switch direction (-1 OFF switch, 1 ON switch): -1; higher = weaker reporter binding
- MEASUREMENT CONDITIONS: input ligand: FMN 200 uM
apparent KD of MS2 coat protein values for the sequences below.
Lab book: enter the figure in nM, no units written.

{"ENTRY SEQUENCE": "GAGUUAGCGUGAGGAAUAUACAUGAGGAUCACCCAUGUUAGCUAAUAUAUUGCUCGUCUUAUAACAACAAUUAACUC [Alarm 10 - Jieux - Sensor, turn-off variant 1] (Eterna round: R97, puzzle: Sensor, turn-off variant 1)", "TESTED TARGET": "MS2 coat protein", "UNIT TEXT": "nM", "apparent KD of MS2 coat protein": 14.6}

Task item: Please indicate apparent KD of MS2 coat protein recorded for AAAUUGGUAGAGGAUAUCGCACAGGAAACACUGCGAGAAGGCUGCACAUGAGGAUCACCCAUGUUCAGUUGCGA [EX6 #38] (Eterna round: R97, puzzle: Exclusion 6)
Reply: 16.7

---

- Test system: K4 kissing-loop RNA reporter;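 further: bound reporter read as fluorescence of individual clusters on recovered sequencing chips by microscopy, with normalized cluster intensities fitted with a binding model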
- EXPERIMENTAL DETAILS: apparent KD of K4 kissing-loop reporter; higher = weaker reporter binding
- MEASUREMENT CONDITIONS: Eterna round: R107; input ligand: none
MEASURE: apparent KD of K4 kissing-loop reporter (nM)
Lab book: enter the figure in nM, no units written.

{"ENTRY SEQUENCE": "GGCAUGGUGACGCGGCGGCCAUGCACUUGGGAGGAUAUGUUUCGUGACAGAAGGCCCAGUGAUGUUGGGUCUGUUCAAAAGGACU [Riteveat]", "ENDPOINT VALUE": 192}
{"ENTRY SEQUENCE": "UGGUUUAGAAGUGAUGUUUCGAUAAGUGAUACCAGACAAAAGAAAGUCCCUUGGCAGCACAAUGAUGCCAAGGAAACGGCAUGAU [Same State Theophylline A GF 1]", "ENDPOINT VALUE": 115}
{"ENTRY SEQUENCE": "UCGCAAGAAUCACUGUGGAGGACCUUGGCCAAGGAUAUCAAAGGAUUGAGAAGGUGGCGCCAAGUGAUGUUUGGAUGCCGGGCAG [theeternabot_exclusion_KL_FMN_A_36]", "ENDPOINT VALUE": 293}
{"ENTRY SEQUENCE": "UACUAUAGUGAUGUUAUAGAUAAACCAGAUACCAGUGUAACAUAACACCCUUGGCAGCUGAUGAGGGAACAUAUGAAUGCAUAUG [AstrosSSTHe-A#5newdesignED5.11]", "ENDPOINT VALUE": 179}
{"ENTRY SEQUENCE": "GGCGGCUGCGCGGAAGCGCAGCCGGCCGAUACCAGCGCGACGGCGCGCCCUUGGCAGCGGCGCCGAGUGAUGUUCGGCCUGCCGU [#2 Same State - Theophylline A Attempt #21 (HarryS)]", "ENDPOINT VALUE": 95.3}
{"ENTRY SEQUENCE": "CGCCGUAAGGCGGUCGCUCCCACUCCGGAAGGAGCGCCCGGAAGGGCAGGUAGGUCGCCGGAGUGAUGUUCCGGUGGAGGGACCG [#2 Exclusion - Arginine A Attempt #9 (Inspired by Omei)]", "ENDPOINT VALUE": 365}
{"ENTRY SEQUENCE": "AGGUUUUGAUUAGGAUAUGCACUGAGGAGGAGAAUAUAGUGAUGUUAUAUAAGAGGAAUUAGUAGAGUAGAAGGGAUUGAGGUUU [SSFMNB.T]", "ENDPOINT VALUE": 131}
{"ENTRY SEQUENCE": "AAUAUCUAGUAUAUUUUUAAUAAAACAGAUACCAGUGAUAAUAGACACCCUUGGCAGCUGGUCGAGUGAUGUUCGUUUAUAUUAA [JR_SSTheophyA_Sub006]", "ENDPOINT VALUE": 104}
{"ENTRY SEQUENCE": "CACGUUUACCAAGGAUAUGGUCUGCCGCGGAACCGUUCAAGUGAUGUUUGAUUCGAGUAUUAAUCUCCAGAAGGUGGUAGUACAG [theeternabot_exclusion_KL_FMN_B_6]", "ENDPOINT VALUE": 417}
{"ENTRY SEQUENCE": "CGCAAGCAGCCAGUGAUGUUGGCCGCCUUGCGAGGACCGGUACGGCCGCCACUCGAAGGCGGCUACUAGUAAACCGCCUAACGGA [KL-XTryp-A17]", "ENDPOINT VALUE": 95.6}

Proceed to the following item.
Task item: Please indicate apparent KD of K4 kissing-loop reporter recorded for UGAUACCAGACGGCCGCCACUGCACCAGUCAAUGACUGAGUGCGGUAGUGCUCAGUGAUGUUGAGUAGGACCGGGUCUGGUAUCU [Mod of Eli's TrypBX 8 v3]
Reply: 131
